Entries and their measured IC50 follow.
Target: Tubulin
Experiment: Inhibition of tubulin polymerization (unknown origin) measured after 1 min by fluorescence assay
Format: protein-complex assay, Homo sapiens
Conditions: read-out: IC50
endpointName: IC50

{"smilesInput": "COc1ccc(/C=C\\c2cc(OC)c(OC)c(OC)c2)cc1/C=C/C(=O)Nc1ccccc1N", "endpointName": "IC50", "reported": "1 µM"}
{"smilesInput": "COc1ccc(/C=C\\c2cc(OC)c(OC)c(OC)c2)cc1OCCCC(=O)NO", "endpointName": "IC50", "reported": "5.2 µM"}
{"smilesInput": "COc1ccc(C(=O)c2cc(OC)c(OC)c(OC)c2)cc1OCC(=O)NO", "endpointName": "IC50", "reported": "19.6 µM"}
{"smilesInput": "COc1ccc(/C=C\\c2cc(OC)c(OC)c(OC)c2)cc1OCc1ccc(C(=O)NO)cc1", "endpointName": "IC50", "reported": "8.6 µM"}
